These data points were gathered from patent US11613522B2.

tested on: Viola tricolor; test: Post-emergence herbicidal activity against VIOTR; format: in vivo; settings: Viola tricolor, 504 h, dosage 320 g/ha, rated visually after about 3 weeks
propertyLabel: pest or weed control at 320 g/ha (%)
Write the answer as a number in %, unit excluded.

Data request: Please give the measured pest or weed control at 320 g/ha for this molecule: C=C[C@]1(C(=O)N[C@@H]2CO[C@H](C(=O)NOCC)C2)CC(c2cc(F)cc(F)c2)=NO1 (mixture of isomers)
Data returned: 80

Data request: Repeat for the following molecule: C=CC1(C(=O)N[C@@H]2CO[C@H](C(=O)NC)C2)CC(c2cc(F)cc(F)c2)=NO1 (relative stereo)
Data returned: 80

Data request: What do you have for CC1(C(=O)N[C@@H]2CO[C@H](C(=O)N3CCCC3)C2)CC(c2cc(F)cc(F)c2)=NO1 (relative stereo) ?
Data returned: 80

Data request: # iterate: C=C[C@]1(C(=O)N[C@@H]2CO[C@H](C(=O)NOC(C)C)C2)CC(c2cc(F)cc(F)c2)=NO1 (mixture of isomers)
Data returned: 80

Data request: C=C[C@]1(C(=O)N[C@@H]2CO[C@H](C(=O)NC3CC3)C2)CC(c2cc(F)cc(F)c2)=NO1 (mixture of isomers) , same question.
Data returned: 80

Data request: Moving on to the next molecule: C=C[C@]1(C(=O)N[C@H]2CO[C@@H](C(=O)NNC(=O)OC(C)(C)C)C2)CC(c2cc(F)cc(F)c2)=NO1 (mixture of isomers)
Data returned: 90
